Biological target: MMP-14CD (catalytic domain of MMP-14) (Homo sapiens)
Assay: Thiopeptolide hydrolysis assay, MMP-14CD
Assay type: biochemical
Conditions: thiopeptolide substrate, HEPES pH 7.0, 22° C.
Please respond with reported IC50 for every item in the list.
Express the result in µM but write the number alone.

MMP-14CD (catalytic domain of MMP-14) (Homo sapiens) / IC50 / `CC1(C)SCCN(S(=O)(=O)c2ccc(-c3ccc(Oc4ccccc4)cc3)cc2)[C@H]1C(=O)O` : value? 1.5

Entry `CN(C)c1ccc(-c2ccc(S(=O)(=O)N3CCSC(C)(C)[C@@H]3C(=O)O)cc2)cc1` , system MMP-14CD (catalytic domain of MMP-14) (Homo sapiens): what IC50 was measured? 0.19

Lab request: please report IC50 under test system MMP-14CD (catalytic domain of MMP-14) (Homo sapiens) for `CC1(C)SCCN(S(=O)(=O)c2ccc(-c3ccc(F)cc3F)cc2)[C@H]1C(=O)O` 0.67

Form: Entry = `CC1(C)SCCN(S(=O)(=O)c2ccc(-c3ccc4ccccc4c3)cc2)[C@H]1C(=O)O` | System = MMP-14CD (catalytic domain of MMP-14) (Homo sapiens) | IC50 = ____ 0.0567

Value wanted: IC50 (MMP-14CD (catalytic domain of MMP-14) (Homo sapiens)) of entry `CC1(C)[C@H](C(=O)O)N(S(=O)(=O)c2ccc(-c3ccc(Br)cc3)cc2)CCS1(=O)=O` 0.059

What is its IC50 for MMP-14CD (catalytic domain of MMP-14) (Homo sapiens)? Entry: `CC1(C)SCCN(S(=O)(=O)c2ccc(-c3ccc(F)c(F)c3)cc2)[C@H]1C(=O)O` 0.615

For the record `CC1(C)SCCN(S(=O)(=O)c2ccc(-c3ccc(Br)cc3)cc2)[C@H]1C(=O)O` , what value of IC50 is listed for MMP-14CD (catalytic domain of MMP-14) (Homo sapiens)? 0.048

Please state recorded IC50 (tested on MMP-14CD (catalytic domain of MMP-14) (Homo sapiens)) of `COc1ccc(-c2ccc(S(=O)(=O)N3CCSC(C)(C)[C@@H]3C(=O)O)cc2)cc1C=O` 0.037
